# assay explanation: in vivo
# test conditions: Sprague-Dawley, rat, iv, 1 mg/kg
measured endpoint: half-life at 24 h (h)
Expressed in h, but write only the number.

The compound listed as CCS(=O)(=O)n1cc(-c2nc(Nc3ccc4c(ccn4CCN(C)C)c3)ncc2C(F)(F)F)c2ccccc21 has a reported half-life at 24 h of 3.67

----------
# assay explanation: in vivo
# test conditions: Sprague-Dawley, rat, iv, 1 mg/kg
measured endpoint: MRT inf at 24 h (h)
Could you give me the number in h? Just the number is fine.

Entry CCS(=O)(=O)n1cc(-c2nc(Nc3ccc4c(ccn4CCN(C)C)c3)ncc2C(F)(F)F)c2ccccc21 , MRT inf at 24 h reported as 4.33
